// values below are reported GI50
# Tested on: 786-0
# assay.explanation: NCI tumour cell line growth inhibition, 48 h
Active and inactive are the calls of the source. No stated cut-off is given here; in the data, active = GI50 up to about 1.1 µM and inactive = higher.

molecule | GI50
CC(C)(C)c1cc(C(=O)Nc2cc(Br)c(Br)cc2S(N)(=O)=O)cc(C(C)(C)C)c1O | 11 µM (inactive)
COc1cc2c(cc1OC)C(=O)N(NC1=NCCN1)C2=O | > 100 µM (inactive)
O=P(O)(O)CC1OC(CO)C(O)C1O (stereo unspecified) | > 100 µM (inactive)
N/C(=N\c1ccccc1Cl)c1ccccc1N | > 100 µM (inactive)
N=C(N)NCC(N)C(=O)O (stereo unspecified) | > 100 µM (inactive)
O=c1cc(O)c2ccccc2o1 [4-HYDROXYCOUMARINS] | > 100 µM (inactive)

Every entry's value here was drawn from ChEMBL document CHEMBL1201862.
